Where do the numbers come from? From ChEMBL document CHEMBL3639084.

STUDY TARGET: UniProt P00374
Sequence (P00374 whole entry): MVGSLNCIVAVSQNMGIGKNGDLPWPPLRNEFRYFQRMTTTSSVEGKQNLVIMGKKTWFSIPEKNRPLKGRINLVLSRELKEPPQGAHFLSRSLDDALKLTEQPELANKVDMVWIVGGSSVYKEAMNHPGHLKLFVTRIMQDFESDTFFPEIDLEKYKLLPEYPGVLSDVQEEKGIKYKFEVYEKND
EXPERIMENTAL ENDPOINT: IC50

Tell me reported IC50 for COc1cc(-c2ccccc2C)ccc1C(C)C#Cc1c(C)nc(N)nc1N (stereo unspecified) , tested with UniProt P00374.
2770 nM
